Field: concentration at 0.5 h. Provide a value for each of the molecules that follow.
Test protocol: Drug level in Sprague-Dawley rat brain at 10 mg/kg, iv after 30 mins by LC-MS/MS analysis
Assay type: ADME, organism-based
Experimental context: read-out: Drug uptake
Note: state the figure and append the unit.

Reference set (5 entries):
>  <Molecule>
Cc1ccc2c(c1)c1c(n2C)CCN(CCNC(=O)c2ncn3c(=O)n(C)nnc23)C1

>  <concentration at 0.5 h>
3150 ng/g

$$$$
>  <Molecule>
Cc1ccc2c(c1)c1c(n2CCNC(=O)c2ncn3c(=O)n(C)nnc23)CCN(C)C1

>  <concentration at 0.5 h>
517 ng/g

$$$$
>  <Molecule>
Cn1nnc2c(C(=O)N3CCc4c(n(C5CC5)c5c(Cl)cc(Cl)cc45)C3)ncn2c1=O

>  <concentration at 0.5 h>
4950 ng/g

$$$$
>  <Molecule>
Cc1ccc2[nH]c3c(c2c1)CN(CCNC(=O)c1ncn2c(=O)n(C)nnc12)CC3

>  <concentration at 0.5 h>
1100 ng/g

$$$$
>  <Molecule>
CN1CCc2c(n(CCNC(=O)c3ncn4c(=O)n(C)nnc34)c3ccc(Cl)cc23)C1

>  <concentration at 0.5 h>
574 ng/g

$$$$

# per-item lookup of concentration at 0.5 h; items listed below
1. Cn1nnc2c(C(N)=O)ncn2c1=O [TEMOZOLOMIDE]
2. Cc1ccc2c(c1)c1c(n2C)CN(C(=O)c2ncn3c(=O)n(C)nnc23)CC1

Result block:
1. 4210 ng/g
2. 2020 ng/g
